meta.source: paper PMC7774954

Listed below: pKd values for each entry.
Target: T1, NHERF1-1 (human, UniProt O14745 14-94)
T1 construct: PDZ domain number 1 of human NHERF1; also called NHERF1 PDZ dom 1; first PDZ domain of the NHERF1 protein; source: E. coli, in crude cell lysate; not shown: His, N-terminal, kept
T1 sequence (looked up): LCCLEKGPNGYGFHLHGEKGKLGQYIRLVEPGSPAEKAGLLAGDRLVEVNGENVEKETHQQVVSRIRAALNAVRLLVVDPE
Experiment: holdup assay; biotinylated PBM peptide saturating streptavidin resin (biotin resin as reference); tag-PDZ at 4 uM in crude E. coli lysate, 15 min, filtration, free tag-PDZ by capillary electrophoresis; singlicate; BI cut-off 0.20; BI converted into KD with the peptide concentration back-calculated from FP
Details: one partner purified
Where no end group is shown, it is not given here. The star is where a group is joined. Biotin = O=C1N[C@H]2[C@H](CS[C@H]2CCCCC(=O)*)N1; TTDS = NCCCOCCOCCOCCCNC(=O)CCC(=O)*
// pKd is dimensionless: -log10 of concentration (M)

>  <binder>
{Biotin-TTDS}-DEDQHTQITRV (peptide, UniProt P60484 393-403, looked up, also called K402R mutant; source: synthetic peptide (Chemical Peptide Synthesis Service of the IGBMC, Fmoc)) [PTEN_KR]

>  <pKd>
5.40

$$$$

Data request, read-out pKd, for {Biotin-TTDS}-DEDQHTQITKV (peptide, UniProt P60484 393-403, looked up, also called 11-mer wild-type PTEN PBM peptide; native PTEN_11 PBM; source: synthetic peptide (Chemical Peptide Synthesis Service of the IGBMC, Fmoc)) [PTEN_11]
4.48

Given {Biotin-TTDS}-DEDQHTQITK(Ac)V (peptide, UniProt P60484 393-403, looked up, also called acetylated version of PTEN_11; acetylated peptide; source: synthetic peptide (Chemical Peptide Synthesis Service of the IGBMC, Fmoc)) [PTEN_Ac] , state its recorded pKd.
4.85
